assay: pH solubility studies in buffers and biorelevant media (Example 16); assay type: physicochemical; conditions: buffers and biorelevant media, 25 °C, pH 1.2, aqueous buffer, thermodynamic from solid, pH 1.2 and 4.5 buffers and all the biorelevant media; slurry 25° C., 24 hours; read-out: solubility
ENDPOINT_NAME: solubility at 24 h

Tell me its solubility at 24 h given "CCCN1CCNCCCNC(=O)c2cc(OC)c(OC)c(c2)OCCC[C@@H](OC(=O)c2cc(OC)c(OC)c(OC)c2)CC1" as the entry.
> 75 mg/mL

* * *

assay: pH solubility studies in buffers and biorelevant media (Example 16); format: physicochemical; conditions: FaSSGF, 25 °C, pH 0.93, fassgf or other biorelevant, thermodynamic from solid, FaSSGF, 25° C., 24 h; pH after 24 h 0.93; read-out: Solub.
ENDPOINT_NAME: solubility at 24 h (mg/mL)
Expressed in mg/mL, but write only the number.

Provide one value: measured solubility at 24 h of "CCCN1CCNCCCNC(=O)c2cc(OC)c(OC)c(c2)OCCC[C@@H](OC(=O)c2cc(OC)c(OC)c(OC)c2)CC1"
81.1

* * *

test: pH solubility studies in buffers and biorelevant media (Example 16); format: physicochemical; settings: FaSSIF, 25 °C, pH 1.12, fassif, thermodynamic from solid, FaSSIF, 25° C., 24 h; pH after 24 h 1.12; read-out: Solub.
ENDPOINT_NAME: solubility at 24 h (mg/mL)
Just the number in mg/mL, nothing appended.

State its solubility at 24 h for this compound: "CCCN1CCNCCCNC(=O)c2cc(OC)c(OC)c(c2)OCCC[C@@H](OC(=O)c2cc(OC)c(OC)c(OC)c2)CC1"
76.6

* * *

assay: pH solubility studies in buffers and biorelevant media (Example 16); type: physicochemical; conditions: acetate buffer, 25 °C, pH 4.5, aqueous buffer, thermodynamic from solid, pH 4.5 (Acetate), attempt 2, 25° C., 24 h; pH after 24 h 1.68→4.62; read-out: Solub.
ENDPOINT_NAME: solubility at 24 h (mg/mL)
Expressed in mg/mL, but write only the number.

In one line, give reported solubility at 24 h of the entry "CCCN1CCNCCCNC(=O)c2cc(OC)c(OC)c(c2)OCCC[C@@H](OC(=O)c2cc(OC)c(OC)c(OC)c2)CC1" .
94.5

* * *

experiment: pH solubility studies in buffers and biorelevant media (Example 16); type: physicochemical; conditions: acetate buffer pH 4.5, 25 °C, pH 4.5, aqueous buffer, thermodynamic from solid, pH 4.5 buffer media, Attempt 1; 25° C., 24 hours; read-out: solubility
From the text: […]
ENDPOINT_NAME: solubility at 24 h

Please list solubility at 24 h recorded for the compound "CCCN1CCNCCCNC(=O)c2cc(OC)c(OC)c(c2)OCCC[C@@H](OC(=O)c2cc(OC)c(OC)c(OC)c2)CC1"
< 20 mg/mL

* * *

experiment: pH solubility studies in buffers and biorelevant media (Example 16); format: physicochemical; conditions: acetate buffer, 25 °C, pH 4.5, aqueous buffer, thermodynamic from solid, pH 4.5 (Acetate), attempt 1, 25° C., 24 h; pH after 24 h 4.53; read-out: Solub.
ENDPOINT_NAME: solubility at 24 h (mg/mL)
Field format: number, assumed mg/mL, no unit text.

Provide one value: measured solubility at 24 h of "CCCN1CCNCCCNC(=O)c2cc(OC)c(OC)c(c2)OCCC[C@@H](OC(=O)c2cc(OC)c(OC)c(OC)c2)CC1"
17.8

* * *

experiment: pH solubility studies in buffers and biorelevant media (Example 16); type: physicochemical; conditions: phosphate buffer, 25 °C, pH 6.8, aqueous buffer, thermodynamic from solid, pH 6.8 (Phosphate), attempt 1, 25° C., 24 h; pH after 24 h 1.01→6.87; read-out: Solub.
ENDPOINT_NAME: solubility at 24 h (mg/mL)
Numeric only. Scale: mg/mL

For "CCCN1CCNCCCNC(=O)c2cc(OC)c(OC)c(c2)OCCC[C@@H](OC(=O)c2cc(OC)c(OC)c(OC)c2)CC1" , write its solubility at 24 h.
12

* * *

assay: pH solubility studies in buffers and biorelevant media (Example 16); assay type: physicochemical; conditions: HCl/KCl buffer, 25 °C, pH 1.2, simulated gastric fluid, thermodynamic from solid, pH 1.2 (HCl/KCl), attempt 1, 25° C., 24 h; pH after 24 h 0.98→1.22; read-out: Solub.
ENDPOINT_NAME: solubility at 24 h

Look up solubility at 24 h of "CCCN1CCNCCCNC(=O)c2cc(OC)c(OC)c(c2)OCCC[C@@H](OC(=O)c2cc(OC)c(OC)c(OC)c2)CC1" and report it.
> 86.7 mg/mL

* * *

test: pH solubility studies in buffers and biorelevant media (Example 16); type: physicochemical; conditions: FeSSIF, 25 °C, pH 1.07, fessif, thermodynamic from solid, FeSSIF, 25° C., 24 h; pH after 24 h 1.07; read-out: Solub.
ENDPOINT_NAME: solubility at 24 h (mg/mL)
Write it as a number; the unit mg/mL goes unstated.

Tell me solubility at 24 h reported for "CCCN1CCNCCCNC(=O)c2cc(OC)c(OC)c(c2)OCCC[C@@H](OC(=O)c2cc(OC)c(OC)c(OC)c2)CC1"
133
